# cell viability listing for each entry below
tested on: MDA-MB-231; assay: cell viability relative to vehicle unstimulated control (fraction); higher = more viable cells; conditions: pre-treatment time: 18 h then 24 h IFNg/TNF;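 further: viability of the cells left after supernatant collection, read with Deep Blue dye added for 4 h, as absorbance at 570 nm minus 600 nm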

{"molecule": "CC1(C)C2CC=C(C=O)C1C2 (single isomer, unassigned; (-)) [(-)-Myrtenal] (compound dose: 10 uM)", "cell viability": 0.988}
{"molecule": "CC(C)=CCC[C@@H](C)CC=O [Citronellal] (compound dose: 10 uM)", "cell viability": 1.07}
{"molecule": "COC(=O)C1=CO[C@@H](O[C@@H]2O[C@H](CO)[C@@H](O)[C@H](O)[C@H]2O)[C@@H]2C(COC(C)=O)=C[C@H](O)[C@H]12 [Daphylloside] (compound dose: 10 uM)", "cell viability": 0.999}
{"molecule": "OCC1=C[C@@H](O)[C@@H]2C=CO[C@@H](O[C@@H]3O[C@H](CO)[C@@H](O)[C@H](O)[C@H]3O)[C@H]12 [Aucubin] (compound dose: 10 uM)", "cell viability": 1.01}
{"molecule": "O=c1ccoc2cc(O)cc(O)c12 [5.7-dihydroxychromone] (compound dose: 10 uM)", "cell viability": 0.923}
{"molecule": "CC1=CC23C(=O)C(C=C4COC(C)(C)OC4C24OC(C)(C)OC14)C1C(CC3C)C1(C)C (stereo unspecified) [Ingenol-3,4,5,20-diacetonide] (compound dose: 10 uM)", "cell viability": 1.09}
